Data provenance: patent US5108916A

Assay: Solubility of HPPA-Me
Format: physicochemical
Conditions: organic solvent or mixture; in cyclohexane; read-out: Solubility (HPPA-ME)
Quantity Measured: solubility (mg/mL)
Numbers only, in mg/mL.

// solubility lookup, key: COC(=O)C(C)Oc1ccc(O)cc1 (racemic) [HPPA-ME]
66.4

---

Experiment: Conversion of ketoprofen esters in organic solvent/oleic acid media
Format: biochemical
Details: KPEG 50 mg; as E212
Quantity Measured: % Acid (%)
Give bare numbers, in %.

Look over these answered cases.
Give the measured % Acid of c1ccc2c(c1)CCCC2 [1,2,3,4-Tetrahydronapthalene] .
1

Find the recorded % Acid belonging to `ClC(Cl)=C(Cl)Cl` and report it.
0

Below is a list of compounds. For each, state its recorded % Acid.
1. C1=CCCCCCC1
2. CC(Cl)(Cl)Cl
3. C1CCCCC1
4. C1=CCCCC1
5. CC(C)CC(C)(C)C

1. 16
2. 0
3. 29
4. 3
5. 48

---

Assay: Solubility of HPPA-Me
Format: physicochemical
Details: organic solvent or mixture; in 1,2-dibromoethane; read-out: Solubility (HPPA-ME)
Quantity Measured: solubility (mg/mL)
Answers are plain numbers, in mg/mL.

# lookup: solubility of COC(=O)C(C)Oc1ccc(O)cc1 (racemic)
566

---

What % Acid was measured for each of the following?
Test: Conversion of ketoprofen esters in organic solvent/oleic acid media
Assay type: biochemical
Settings: Hexane 9 ml, OA 1 ml; 10-26 hours
Procedure: To optimize the organic solvent used in the presence of oleic acid a variety of organic solvents were used, along with a variety of ketoprofen esters. […] Samples were then diluted in methanol and analyzed by HPLC as in Example 18. The experiment was also performed using 200 ul of oleic acid and 10ml buffer, which was acidified, extracted with CHCl3 and analyzed by HPLC as above. […]
// unit must come after the numeric part

Here is how some compounds turned out for % Acid.
Fill in the blank: the reported % Acid of CC(C(=O)OCCOCCO)c1cccc(C(=O)c2ccccc2)c1 (centres unmarked) is ____.
56%

Fill in: % Acid of CC(C(=O)OCCO)c1cccc(C(=O)c2ccccc2)c1 (centres unmarked) is ___
29%

Recorded % Acid for CC(C(=O)OCC(O)CO)c1cccc(C(=O)c2ccccc2)c1 (centres unmarked) [Monoglyceride Ester, ketoprofen monoglyceride] , please?
47%

For the compound shown here, COC(=O)C(C)c1cccc(C(=O)c2ccccc2)c1 (centres unmarked) , give the reported % Acid.
0.8%

Could you now look at the following compound, please?
// returns reported % Acid for input CC(C(=O)OCCCl)c1cccc(C(=O)c2ccccc2)c1 (centres unmarked)
7%

---

Test: Conversion of ketoprofen esters in organic solvent/oleic acid media
Type: biochemical
Details: Isooctane 9 ml, OA 1 ml
Assign y whenever % Acid does not fall below 50%; assign n whenever it does.

Solved entries:
Could you tell me if the measured % Acid of CC(C(=O)OCC(O)CO)c1cccc(C(=O)c2ccccc2)c1 (centres unmarked) [Monoglyceride Ester, ketoprofen monoglyceride] reaches 50% or more?
n

Dear colleague, could you confirm whether COC(=O)C(C)c1cccc(C(=O)c2ccccc2)c1 (centres unmarked) [Methyl ester] has % Acid at or above 50%?
n

// inclusive: % Acid at least 50%? input: CC(C(=O)OCCCl)c1cccc(C(=O)c2ccccc2)c1 (centres unmarked) [2-Chloroethyl Ester, 2-chloroethyl ester of ketoprofen]
n

***
Decide: % Acid of CC(C(=O)OCCOCCO)c1cccc(C(=O)c2ccccc2)c1 (centres unmarked) [Diethylene glycol ester, Diethylene Glycol Ester of Ketoprofen] >= 50%?
y

Is reported % Acid greater than or equal to 50% here: CC(C(=O)OCCO)c1cccc(C(=O)c2ccccc2)c1 (centres unmarked) [Ethylene Glycol Ester, ketoprofen ethylene glycol]
n

---

Test: Conversion of ketoprofen esters in organic solvent/oleic acid media
Type: biochemical
Conditions: KPG 50 mg, 100 mg CSC-2 on silica (279-SD-1), 9 ml solvent (or buffer)/1 ml oleic acid, 13 hours
Quantity Measured: % Acid (%)
Numbers only, in %.

Fill in: % Acid of `CC(C)CC(C)(C)C` is ___
39

Item `C1CCCCC1` has what recorded % Acid?
38

Entry `ClC(Cl)=C(Cl)Cl` : reported % Acid = ?
1

What measured % Acid goes with `C1=CCCCC1` ?
12

Quick check: % Acid of `C1=CCCCCCC1` ?
38

Hi, could you look up % Acid for each item in my list?
1. c1ccc2c(c1)CCCC2 [1,2,3,4-Tetrahydronapthalene]
2. CC(Cl)(Cl)Cl

1. 2
2. 1
